Target: T1, BMP-12 (UniProt Q7Z4P5 322-450, limits assumed)
T1 construct: also called BMP12/GDF7
T1 sequence (looked up): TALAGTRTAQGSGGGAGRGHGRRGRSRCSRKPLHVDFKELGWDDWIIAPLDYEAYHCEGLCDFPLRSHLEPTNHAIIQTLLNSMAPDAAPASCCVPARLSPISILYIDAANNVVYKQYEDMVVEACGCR
Assay: peptide resin, filter plate; load 6: 1M CHES pH 9.7
Method: The coupled resins, plus an unconjugated resin for use as a control, were suspended in 16% ethanol, 150 mM NaCl, and 20 mM Tris buffer at pH 7.5 at a 25% v/v ratio (e.g., 25% ethanol, 75% Tris buffer). […] The protein concentration in the filtrate, or flow-through, was calculated as $(A280-A320)/1.3$. […] The protein concentration was measured in the new filtrate as described above. […]
No end group written: not given here.
ENDPOINT: Flow-through conc (mg/mL)
I only need the number, in mg/mL, no unit after it.

Record excerpt, results attached:
{"BINDER": "Ac-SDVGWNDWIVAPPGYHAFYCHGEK [BMP2 N-trun peptide 750]", "REPORTED RESULT": 0.577}
{"BINDER": "Ac-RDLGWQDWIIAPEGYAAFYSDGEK [BMP5 peptide 748]", "REPORTED RESULT": 0.626}

Ask: Give its Flow-through conc value. Item: Ac-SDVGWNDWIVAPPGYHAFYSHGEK [BMP2 N-trun 1S peptide 751]
Reply: 0.647

Ask: Give its Flow-through conc value. Item: Ac-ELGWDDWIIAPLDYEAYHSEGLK [BMP12 N-trun_1S peptide 749]
Reply: 0.653
